System: human red blood cells
Test: Hemolytic activity
Format: cell-based
Conditions: red cells of human, 18 h, 100
Description: Human red blood cells (Zenbio, North Carolina, USA) and peptides were separately diluted in PBS (blood concentration, 8%). The blood cell and peptide solutions were then mixed in 96-well polyethylene plates (SPL, Gyeonggi-do, Korea) and incubated for 18 h at 37 °C. […] Hemolysis levels were determined by measuring the absorbance at 540 nm with a SpectraMax plate spectrophotometer (Molecular Devices, California, USA). […]
Ends that are not written are not given here.
Provide the reported Hemolysis percent, 100 μM of each item.
Give the number; % is assumed, so skip it.

Form field: reported Hemolysis percent, 100 μM of WLVWIGRRR-NH2 [Hybrid-2]
2.88

Quick one: Hemolysis percent, 100 μM for WLRRWWIRV-NH2 [HLWCopW29-2] ?
19.60

// query Hemolysis percent, 100 μM value for entry WLVWVWRRR-NH2 [Hybrid-3]
7.17

Name the reported Hemolysis percent, 100 μM value associated with the substance WLVWIWRRR-NH2 [LWCopW29]
13.65

Which Hemolysis percent, 100 μM value belongs to WLVWVGRRR-NH2 [Hybrid-1] ?
1.40

Looking for the measured Hemolysis percent, 100 μM of GVLVLFRRR-NH2 [Ptg C-ter 1] , can you help?
1.17

Fill in the blank: the reported Hemolysis percent, 100 μM of GVWVLFRRR-NH2 [Ptg C-ter 3] is ____.
1.32

Form field: reported Hemolysis percent, 100 μM of RWLRWWIRV-NH2 [HLWCopW29-1]
16.39

Requested field: Hemolysis percent, 100 μM. Item: WRLWRWIVR-NH2 [HLWCopW29-3]
4.45

Entry WLLWIALRKKR-NH2 [WCopW2] has what Hemolysis percent, 100 μM?
23.10

So what does the record say about Hemolysis percent, 100 μM for RLWWRWIVR-NH2 [HLWCopW29-4] ?
2.47

// Hemolysis percent, 100 μM lookup, key: LLLLLWRRR-NH2 [AcWL-2]
27.97

# Hemolysis percent, 100 μM lookup, item GVLVWFRRR-NH2 [Ptg C-ter 2]
1.80

Recorded Hemolysis percent, 100 μM of WLLLLWRRR-NH2 [AcWL-3] , please.
36.71

Give its Hemolysis percent, 100 μM value. Item: WLLLLLRRR-NH2 [AcWL-1]
36.35

Look up Hemolysis percent, 100 μM: WLLWIALRKKR-NH2 [WCopW1]
19.40

====

So I've got a bunch of molecules here, and I need their Minimum inhibitory concentrations, MDR P. aeruginosa values.
System: MDR P. aeruginosa
Assay: microbe, parasite or virus in culture
Conditions: CLSI broth microdilution; CAMHB with 50 mg/L Ca2+, 10 mg/L Mg2+; 5 × 10^5 CFU/ml; 18 h 37 °C; no visible turbidity; triplicate; strain CCARM 2180
Square brackets hold non-standard residues; d marks the D form. Peptide text beside a SMILES is read from it.
Give the number; µM is assumed, so skip it.

Data request, read-out Minimum inhibitory concentrations, MDR P. aeruginosa, for CC[C@@H](C)[C@@H](NC(=O)[C@@H](Cc1c[nH]c2ccccc12)NC(=O)[C@@H](CCCNC(=N)N)NC(=O)[C@@H](CCCNC(=N)N)NC(=O)[C@H](N)CCCNC(=N)N)C(=O)N[C@H](Cc1c[nH]c2ccccc12)C(=O)N[C@@H](C(=O)N[C@@H](C(=O)N[C@H](Cc1c[nH]c2ccccc12)C(N)=O)[C@H](C)CC)[C@H](C)CC [WCopW60] (H-[dR][dR][dR][dW][dI][dW][dI][dI][dW]-NH2)
5

Which Minimum inhibitory concentrations, MDR P. aeruginosa value belongs to CC[C@@H](C)[C@@H](NC(=O)[C@@H](Cc1c[nH]c2ccccc12)NC(=O)[C@@H](Cc1ccccc1)NC(=O)[C@@H](CC(C)C)NC(=O)[C@H](N)Cc1c[nH]c2ccccc12)C(=O)NCC(=O)N[C@H](CC(C)C)C(=O)N[C@H](CCCNC(=N)N)C(=O)N[C@H](CCCCN)C(=O)N[C@H](CCCCN)C(=O)N[C@H](CCCNC(=N)N)C(N)=O [WCopWF] (H-[dW][dL][dF][dW][dI]G[dL][dR][dK][dK][dR]-NH2) ?
10

Returns the measured Minimum inhibitory concentrations, MDR P. aeruginosa for the input molecule. Input: CC[C@@H](C)[C@@H](NC(=O)[C@@H](Cc1c[nH]c2ccccc12)NC(=O)[C@H](NC(=O)[C@@H](CC(C)C)NC(=O)[C@H](N)Cc1c[nH]c2ccccc12)C(C)C)C(=O)NCC(=O)N[C@H](CC(C)C)C(=O)N[C@H](CCCNC(=N)N)C(=O)N[C@H](CCCCN)C(=O)N[C@H](CCCCN)C(=O)N[C@H](CCCNC(=N)N)C(N)=O [WCopWV] (H-[dW][dL][dV][dW][dI]G[dL][dR][dK][dK][dR]-NH2)
10

====

Test system: MDR S. aureus
Assay: microbe, parasite or virus in culture
Conditions: CLSI broth microdilution; CAMHB with 50 mg/L Ca2+, 10 mg/L Mg2+; 5 × 10^5 CFU/ml; 18 h 37 °C; triplicate; strain KCCM 40510
Protocol: MDR Pseudomonas aeruginosa (CCARM 2180) was purchased from the Culture Collection of Antimicrobial Resistance Microbes (Seoul, Republic of Korea). […] To assess antimicrobial activity, the MIC50 and MIC90 were measured using broth microdilution following CLSI guidelines. […] MICs in albumin and acetic acid solutions were measured using the same protocol but with 0.2% bovine serum albumin (Bovogen, Keilor, Australia), 0.01% acetic acid (Merck, New Jersey, USA), and CAMHB with both calcium and magnesium. […]
Square brackets hold non-standard residues; d marks the D form. Peptide text beside a SMILES is read from it.
MEASURED_ATTRIBUTE: Minimum inhibitory concentrations, MDR S. aureus (µM)
Report the value in µM with no unit label.

Dear colleague, I am looking for the recorded Minimum inhibitory concentrations, MDR S. aureus of the following compound: CC[C@@H](C)[C@@H](NC(=O)[C@@H](Cc1c[nH]c2ccccc12)NC(=O)[C@@H](CCCNC(=N)N)NC(=O)[C@@H](CCCNC(=N)N)NC(=O)[C@H](N)CCCNC(=N)N)C(=O)N[C@H](Cc1c[nH]c2ccccc12)C(=O)N[C@@H](C(=O)N[C@@H](C(=O)N[C@H](Cc1c[nH]c2ccccc12)C(=O)N[C@H](CCCCN)C(N)=O)[C@H](C)CC)C(C)C [WCopW43] (H-[dR][dR][dR][dW][dI][dW][dV][dI][dW][dK]-NH2)
0.63

====

Test system: human red blood cells
Assay: Hemolytic activity
Format: cell-based
Details: red cells of human, 18 h, 50
Square brackets hold non-standard residues; d marks the D form. Peptide text beside a SMILES is read from it.
MEASURED_ATTRIBUTE: Hemolysis percent, 50 μM

Looking for the measured Hemolysis percent, 50 μM of CC[C@@H](C)[C@@H](NC(=O)[C@@H](Cc1c[nH]c2ccccc12)NC(=O)[C@@H](CC(C)C)NC(=O)[C@H](N)CC(C)C)C(=O)N[C@H](C)C(=O)N[C@H](CC(C)C)C(=O)N[C@H](CCCNC(=N)N)C(=O)N[C@H](CCCCN)C(=O)N[C@H](CCCCN)C(=O)N[C@H](CCCNC(=N)N)C(N)=O [WCopW11] (H-[dL][dL][dW][dI][dA][dL][dR][dK][dK][dR]-NH2) , can you help?
1.02%

If you can, please state the reported Hemolysis percent, 50 μM value of CC(C)[C@@H](NC(=O)[C@H](N)Cc1c[nH]c2ccccc12)C(=O)N[C@@H](C(=O)N[C@@H](C(=O)N[C@@H](C(=O)N[C@H](Cc1c[nH]c2ccccc12)C(=O)N[C@H](CCCNC(=N)N)C(=O)N[C@H](CCCNC(=N)N)C(=O)N[C@H](CCCNC(=N)N)C(N)=O)C(C)C)C(C)C)C(C)C [WCopW44] (H-[dW][dV][dV][dV][dV][dW][dR][dR][dR]-NH2) .
0.87 ±0.36%

Return reported Hemolysis percent, 50 μM; argument: CC[C@@H](C)[C@@H](NC(=O)[C@@H](Cc1c[nH]c2ccccc12)NC(=O)[C@@H](CC(C)C)NC(=O)[C@@H](CC(C)C)NC(=O)[C@H](N)Cc1c[nH]c2ccccc12)C(=O)N[C@H](C)C(=O)N[C@H](CC(C)C)C(=O)N[C@H](CCCNC(=N)N)C(=O)N[C@H](CCCCN)C(=O)N[C@H](CCCCN)C(=O)N[C@H](CCCNC(=N)N)C(N)=O [WCopW3] (H-[dW][dL][dL][dW][dI][dA][dL][dR][dK][dK][dR]-NH2)
9.36%

====

Exercise: for every item that follows, state its recorded Hemolysis percent, 25 μM.
Test system: human red blood cells
Assay: Hemolytic activity
Format: cell-based
Settings: red cells of human, 18 h, 25
Square brackets hold non-standard residues; d marks the D form. Peptide text beside a SMILES is read from it.

Any idea what its Hemolysis percent, 25 μM is? The molecule is CC[C@@H](C)[C@@H](NC(=O)[C@@H](Cc1c[nH]c2ccccc12)NC(=O)[C@@H](CC(C)C)NC(=O)[C@@H](CC(C)C)NC(=O)[C@H](N)Cc1c[nH]c2ccccc12)C(=O)N[C@H](C)C(=O)N[C@H](CC(C)C)C(=O)N[C@H](CCCNC(=N)N)C(=O)N[C@H](CCCCN)C(=O)N[C@H](CCCCN)C(=O)N[C@H](CCCNC(=N)N)C(N)=O [WCopW3] (H-[dW][dL][dL][dW][dI][dA][dL][dR][dK][dK][dR]-NH2)
3.64%

Need Hemolysis percent, 25 μM, item CC[C@@H](C)[C@@H](NC(=O)[C@@H](Cc1c[nH]c2ccccc12)NC(=O)[C@@H](CC(C)C)NC(=O)[C@H](N)Cc1c[nH]c2ccccc12)C(=O)N[C@H](Cc1c[nH]c2ccccc12)C(=O)N[C@H](CCCNC(=N)N)C(=O)N[C@H](CCCNC(=N)N)C(=O)N[C@H](CCCNC(=N)N)C(N)=O [WCopW41] (H-[dW][dL][dW][dI][dW][dR][dR][dR]-NH2)
0.01 ±0.01%
